- METHOD DESCRIPTION: clinical
- ASSAY CONTEXT: human, plasma, other: intranasal, 4 mg, Cmax, One Spray 4% (w/v) IN; geometric mean (CV %)
MEASURED METRIC: Cmax (ng/mL)
Give bare numbers, in ng/mL.

Query block: Query: Cmax; subject: C=CCN1CC[C@]23c4c5ccc(O)c4O[C@H]2C(=O)CC[C@@]3(O)[C@H]1C5
Result block: 4.83

###

- METHOD DESCRIPTION: clinical
- ASSAY CONTEXT: human, plasma, im, 0.4 mg, Cmax, One Injection 0.4 mg IM; geometric mean (CV %)
MEASURED METRIC: Cmax (ng/mL)
One number for each entry, in ng/mL.

Query block: Query: Cmax; subject: C=CCN1CC[C@]23c4c5ccc(O)c4O[C@H]2C(=O)CC[C@@]3(O)[C@H]1C5
Result block: 0.877

###

- METHOD DESCRIPTION: clinical
- ASSAY CONTEXT: human, plasma, other: intranasal, 2 mg, tmax, One Spray 2% (w/v) IN; Table 13
MEASURED METRIC: Tmax
Give the figure together with its unit, number first.

Query block: Query: Tmax; subject: C=CCN1CC[C@]23c4c5ccc(O)c4O[C@H]2C(=O)CC[C@@]3(O)[C@H]1C5
Result block: 19.8 min

###

- METHOD DESCRIPTION: clinical
- ASSAY CONTEXT: human, plasma, other: intranasal, 2 mg, Cmax, One Spray 2% (w/v) IN; geometric mean (CV %)
MEASURED METRIC: Cmax (ng/mL)
One number for each entry, in ng/mL.

Query block: Query: Cmax; subject: C=CCN1CC[C@]23c4c5ccc(O)c4O[C@H]2C(=O)CC[C@@]3(O)[C@H]1C5
Result block: 2.92

###

- METHOD DESCRIPTION: clinical
- ASSAY CONTEXT: human, plasma, other: intranasal (IN), 2 mg, AUC0-t, One Spray 2% (w/v) IN; geometric mean (CV %)
MEASURED METRIC: AUC(0-t)

Query block: Query: AUC(0-t); subject: C=CCN1CC[C@]23c4c5ccc(O)c4O[C@H]2C(=O)CC[C@@]3(O)[C@H]1C5 [naloxone]
Result block: 4.51 ng·h/mL

###

- METHOD DESCRIPTION: clinical
- ASSAY CONTEXT: human, plasma, other: intranasal (IN), 8 mg, AUC0-∞, Two Sprays 4% (w/v) IN; geometric mean (CV %)
MEASURED METRIC: AUC(0-inf) (ng·h/mL)
One number for each entry, in ng·h/mL.

Query block: Query: AUC(0-inf); subject: C=CCN1CC[C@]23c4c5ccc(O)c4O[C@H]2C(=O)CC[C@@]3(O)[C@H]1C5
Result block: 15.5

###

- METHOD DESCRIPTION: clinical
- ASSAY CONTEXT: human, plasma, other: intranasal (IN), 4 mg, AUC0-∞, One Spray 4% (w/v) IN; geometric mean (CV %)
MEASURED METRIC: AUC(0-inf) (ng·h/mL)
Numbers only, in ng·h/mL.

Query block: Query: AUC(0-inf); subject: C=CCN1CC[C@]23c4c5ccc(O)c4O[C@H]2C(=O)CC[C@@]3(O)[C@H]1C5
Result block: 7.95

###

- METHOD DESCRIPTION: clinical
- ASSAY CONTEXT: human, plasma, other: intranasal, 8 mg, tmax, Two Sprays 4% (w/v) IN; Table 13
MEASURED METRIC: Tmax (min)
One number for each entry, in min.

Query block: Query: Tmax; subject: C=CCN1CC[C@]23c4c5ccc(O)c4O[C@H]2C(=O)CC[C@@]3(O)[C@H]1C5
Result block: 19.8
